test system: HEK-293T; assay: Multiplex assay against HEK293T; format: toxicity, cell-based; conditions: human, 24 h, 10 µM, compound concentration 10 uM, replicate 1
measurement_label: Population Apoptotic (%)

Answered examples (10):
C=C1/C(=C\C=C2/CCC[C@]3(C)[C@@H]([C@H](C)/C=C/[C@H](C)C(C)C)CC[C@@H]23)C[C@@H](O)C[C@@H]1O [DOXERCALCIFEROL]
39%
Cn1nc(C(F)(F)F)cc1-c1cnc(N2CCc3cc(S(=O)(=O)Nc4c(F)cc(Cl)cc4F)cc(N4CCCC4=O)c32)nc1 [TP-020]
26%
COc1ccc(-c2ccc3c(N4CCOCC4)nc(N4C[C@@H](C)O[C@@H](C)C4)nc3n2)cc1CO [Ku-0063794]
27%
NC(=O)c1cccc(-c2cc(Nc3ccc(OC(F)(F)F)cc3)ncn2)c1
17%
Cc1ccc(C(=O)Nc2cccc(C(F)(F)F)c2)cc1Nc1nc(-c2cccnc2)nc2c1cnn2C
89%
COc1ccc(S(=O)(=O)N(CCO)c2ccccc2CN(C)C/C=C/c2ccc(Cl)cc2)cc1.O=P(O)(O)O
17%
CCN1CCN(Cc2ccc(Nc3ncc(F)c(-c4cc(F)c5nc(C)n(C(C)C)c5c4)n3)nc2)CC1.CS(=O)(=O)O
72%
Cc1cc(C)c(S(=O)(=O)N(Cc2ccc(-c3cccc(S(C)(=O)=O)c3)cc2)Cc2ccc(C(F)(F)F)o2)c(C)c1
52%
Cl.Oc1ccc2c3c1O[C@H]1c4[nH]c5c(c4C[C@@]4(O)[C@@H](C2)N(CC2CC2)CC[C@]314)C[C@@]1(O)[C@H]2Cc3ccc(O)c4c3[C@@]1(CCN2CC1CC1)[C@H]5O4
35%
O=C(Nc1ccc(-n2nc(-c3cccnc3)cc2C(F)(F)F)cn1)c1ccc(-c2ccccc2)c(F)c1 [BI 2049]
60%

Need Population Apoptotic (%) for each of these molecules.
1. CN1C2CCC1CC(OC(c1ccc(F)cc1)c1ccc(F)cc1)C2.Cl (stereo not given)
2. CN(C)C(=O)C(CCN1CCC(O)(c2ccc(Cl)cc2)CC1)(c1ccccc1)c1ccccc1.Cl [LOPERAMIDE HYDROCHLORIDE]

## Output
["79%", "88%"]
